assayed_system: furin, P09958;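 note: purified furin at 1:10 enzyme:substrate in 50 mM HEPES pH 7.5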
Sequence (P09958 whole entry): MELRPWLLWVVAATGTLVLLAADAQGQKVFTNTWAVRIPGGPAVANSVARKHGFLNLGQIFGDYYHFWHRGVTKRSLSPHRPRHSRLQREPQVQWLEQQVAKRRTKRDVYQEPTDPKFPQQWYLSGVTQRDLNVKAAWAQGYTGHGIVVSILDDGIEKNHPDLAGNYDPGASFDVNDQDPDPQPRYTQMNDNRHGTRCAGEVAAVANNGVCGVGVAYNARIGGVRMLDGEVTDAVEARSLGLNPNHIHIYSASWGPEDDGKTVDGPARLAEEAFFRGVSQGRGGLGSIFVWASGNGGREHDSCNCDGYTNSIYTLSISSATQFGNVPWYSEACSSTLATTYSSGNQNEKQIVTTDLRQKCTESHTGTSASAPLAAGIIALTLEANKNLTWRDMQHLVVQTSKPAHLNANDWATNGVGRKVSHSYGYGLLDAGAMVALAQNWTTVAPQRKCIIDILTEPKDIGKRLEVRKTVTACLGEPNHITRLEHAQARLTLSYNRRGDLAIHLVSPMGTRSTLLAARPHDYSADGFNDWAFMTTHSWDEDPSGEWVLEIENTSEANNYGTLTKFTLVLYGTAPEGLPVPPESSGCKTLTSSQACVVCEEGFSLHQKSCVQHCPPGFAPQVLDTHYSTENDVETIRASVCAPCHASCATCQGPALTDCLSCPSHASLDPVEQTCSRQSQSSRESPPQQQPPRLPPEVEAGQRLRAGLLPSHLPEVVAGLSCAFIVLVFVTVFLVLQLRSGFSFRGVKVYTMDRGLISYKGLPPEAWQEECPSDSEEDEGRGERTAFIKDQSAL
procedure_summary: furin cleavage Z-score vs untreated control; higher = more cleavage, active = 3.5 or more, inactive = 1 or less, 8 variable residues between constant flanks
condition_notes: 30 min
Some of the results follow. How many sequences the whole screen found active is unknown.
Collected furin cleavage Z-score values appear next to each entry.

Field: example entries. Status: answers known.
- CATFHKAEYRAGNASASA [EK4]: -0.599 (inactive)
- CADFVRSITPAGNASASA [FS-1878]: -2.11 (inactive)
- CARFRRAANRAGNASASA [FS-1702]: 7.34 (active)
- CAIKGGRHLIAGNASASA [HC853]: 0.443 (inactive)
- CARVARSRELAGNASASA [FS-1842]: 7.45 (active)
- CAAKHRTKRSAGNASASA [FS-746]: 10.8 (active)
- CAYSPGQRVEAGNASASA [HC1468]: -1.81 (inactive)
- CARERRSEEPAGNASASA [FS-1890]: 0.678 (inactive)
- CARFRKAYKPAGNASASA [FS-2926]: -0.661 (inactive)
- CARSRRQDVRAGNASASA [FS-2818]: 2.66

Ask: Sample CAFGYGAKDVAGNASASA [HC1421] — what was its furin cleavage Z-score?
Reply: 1.24

Ask: Query CAAHWGVLAGAGNASASA [HC336] next
Reply: -0.699 (inactive)

Ask: Query CAHVQRQRREAGNASASA [FS-441] next
Reply: 9.16 (active)

Ask: Query CARVARLLSAAGNASASA [FS-3114] next
Reply: -1.59 (inactive)

Ask: Query CARFRRSVPRAGNASASA [FS-2667] next
Reply: 7.02 (active)
